assay: osmotic lysis modulators in infected erythrocytes, primary screen, PSAC antagonist project, cell-based, P. falciparum Indochina, OD700, 3 h (AID 1156); conditions: higher = more signal, called active from +8 up or from −8 down
# if value of z-score reaches -0.2, tag Yes; if it stays below, tag No

# MOLECULE, ASSIGNED_CLASS
measured = [
    ("CC(C)(C)OC(=O)CC[C@]1(C(N)=O)N=C(c2ccc(OCCCO)cc2)O[C@H]1c1ccccc1CN=[N+]=[N-]", "Yes"),
    ("C=CC(CO)NC(=O)OCC1c2ccccc2-c2ccccc21 (stereo not given)", "No"),
    ("CN(C)CCCNC(=O)[C@@]1(Cc2ccccc2I)c2ccccc2C(=O)N(Cc2ccccc2)[C@H]1c1ccc(CO)cc1", "No"),
    ("COc1ccc(NN2C(C(O)c3ccc(OC)cc3)C=CC3C(=O)N(C4CCCCC4)C(=O)C32)cc1 (stereo not given)", "Yes"),
]

In plain terms: is recorded z-score at least -0.2 for CCOC(=O)C1=CCC(c2cc3ccccc3[nH]2)N(S(=O)(=O)c2ccccc2[N+](=O)[O-])C1 (stereo not given) ?
No

----------
biological target: Streptavidin (Streptomyces avidinii) (UniProt P22629); experiment: streptavidin binders on small-molecule microarray, primary screen, artefact control for SMM compound annotation, biophysical, 635/667 nm fluorescence (AID 1147); settings: streptavidin binding, higher = more signal;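 note: signal reflects streptavidin binding to arrayed compounds as a control protein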
Sequence (P22629 whole entry, looked up): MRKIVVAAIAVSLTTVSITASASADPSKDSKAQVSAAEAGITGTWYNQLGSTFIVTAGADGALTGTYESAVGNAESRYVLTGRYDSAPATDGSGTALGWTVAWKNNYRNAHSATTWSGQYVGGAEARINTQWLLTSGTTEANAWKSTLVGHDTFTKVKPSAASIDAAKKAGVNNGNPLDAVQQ
Assign Met to entries whose composite z-score meets or exceeds -0.1; assign Not met to the rest.

Example cases with answers are listed next.
# COMPOUND, ASSIGNED_CLASS
data = [
    ("CC(C)C[C@@H]1NC(=O)[C@@H]2C[C@H](C(=O)NCCCC[N+](C)(C)C)[C@H](c3ccc(O)cc3)N2C1=O", "Met"),
    ("C=CCC(OC(C)=O)[C@@H]1[C@@H](N(Cc2cccc3ccccc23)C(=O)c2cccc3ccccc23)c2cc(OCCCO)ccc2N1C(=O)Cc1ccc2ccccc2c1 (stereo not given in full)", "Not met"),
    ("COc1cc2c(cc1O)C(c1ccc(CN3CCCC3)cc1)N(Cc1ccc([N+](=O)[O-])o1)CC2 (stereo not given)", "Not met"),
    ("COCCOC(=O)N1C(=O)[C@@]2(c3cc(C#Cc4ccc(OC)cc4)ccc31)[C@H](c1ccc(OCCO)cc1)N1[C@H](c3ccccc3)[C@H](c3ccccc3)OC(=O)[C@H]1[C@@H]2C(=O)N1CCCCCCC1", "Met"),
    ("C=CCC(OC(C)=O)[C@@H]1[C@@H](N(Cc2cccc3ccccc23)C(=O)c2ccc(C)cc2)c2cc(OCCCO)ccc2N1C(=O)c1ccc2ccccc2n1 (stereo not given in full)", "Met"),
    ("NCCCC[C@@H]1NC(=O)[C@H]2C[C@@H](C(=O)O)[C@@H](c3cccc(OCCO)c3)N2C1=O", "Met"),
    ("O=C1OCCC/C=C\\[C@H]2OC34C=CCN(Cc5ccccc5)C(=O)[C@H]3N(CCCCCO)C(=O)[C@@H]4C12 (stereo not given in full)", "Not met"),
    ("O=C1C2C=CC(C(O)c3cccc(O)c3)N(Nc3ccccc3F)C2C(=O)N1c1ccccc1 (stereo not given)", "Not met"),
    ("O=C1NC(=O)C2C1C=CC(C(O)c1ccc(F)cc1)N2Nc1ccccn1 (stereo not given)", "Met"),
    ("C#CCN=C(N)N", "Met"),
]

Reported composite z-score reaches at least -0.1 for `CC(C)C(=C=CC[C@@H](O)c1cccc(OCCO)c1)CCO` ?
Not met

What do you have for O=C1C2C=CC(C(O)c3ccc([N+](=O)[O-])cc3)N(Nc3ccccc3)C2C(=O)N1c1ccccc1 (stereo not given) ?
Not met

Consider next the compound `CN(C)CCCCNC(=O)[C@H]1C[C@H]2C(=O)N[C@@H](Cc3ccccc3)C(=O)N2[C@H]1c1cccc(OCCO)c1` in the same way.
Not met

Also, `C=CC[C@@]1(C(=O)N(C)C)N=C(c2ccc(OCCCO)cc2)O[C@@H]1c1ccccc1` please.
Not met

// query: `COCCOC(=O)N1C(=O)[C@@]2(c3cc(C#CCC(C(=O)OC)C(=O)OC)ccc31)[C@H](C(=O)N1CCc3cc(OC)c(OC)cc3C1)[C@H]1C(=O)O[C@H](c3ccccc3)[C@H](c3ccccc3)N1[C@@H]2c1ccc(O)cc1`
Met

----------
experiment: basal S. cerevisiae growth modulation, no modifier, primary screen, OD600, strain BY4716, 24 h, basal condition (AID 1173); settings: OD600, 24 h, higher = more signal, called active from +8 up or from −8 down
PROPERTY_LABEL: z-score
API note: the answer field is a bare number with no unit suffix.

// below: answered molecules
# MOLECULE, z-score
rows = [
    ("Cc1c(-c2ccc(-c3ccc(Cl)c(Cl)c3)o2)nc(-c2ccccc2)c2c1CO[Si]2(C(C)C)C(C)C", -0.922),
    ("COCCOC(=O)N1C(=O)[C@@]2(c3cc(C#CCC(C(=O)OC)C(=O)OC)ccc31)[C@H](C(N)=O)[C@H]1C(=O)O[C@H](c3ccccc3)[C@H](c3ccccc3)N1[C@@H]2c1ccc(OCCO)cc1", 1.53),
]

Name the reported z-score value associated with the molecule C=CCC(OC(C)=O)[C@@H]1[C@@H](N(Cc2ccc(-c3cccc(C(F)(F)F)c3)o2)C(=O)Cc2ccc(F)cc2)c2cc(OCCCO)ccc2N1C(=O)c1ccc2ccccc2c1 (stereo not given in full)
-0.382

Consider next the molecule `COc1ccc([Si](C)(C)[C@@H]2[C@@H](CC(=O)N(CCO)Cc3ccccc3)O[C@]3(C(=O)N(Cc4ccc(N5CCC5=O)cc4)c4ccccc43)[C@H]2C)cc1` in the same way.
0.144

Field entry: `CC(C)C(=C=CC[C@@H](O)c1ccccc1OCCO)C[C@@H](O)c1cc(Cl)cc(Cl)c1O`
-4.12

----------
assay: mitochondrial membrane potential change in A549 cells, profiling panel, cell-based, JC-1 fluorescence, basal, 24 h, 100 nL (AID 1138); conditions: higher = more signal;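 note: A549 lung adenocarcinoma cells under basal conditions with no added stimulus; test concentration not given here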
Is z-score at least 0.5? Then label 1. If not, label 0.

Below, 5 molecules whose answers are already recorded.
# MOLECULE, ASSIGNED_CLASS
measured = [
    ("COc1ccc([Si](C)(C)[C@H]2[C@H](CCn3cc([C@H](O)c4ccccc4)nn3)O[C@@]3(C(=O)N(C)c4c(Br)cc(C)cc43)[C@@H]2C)cc1", "label 0"),
    ("C=CCC(OC(C)=O)[C@@H]1[C@@H](N(Cc2ccc(-c3cccc(C(F)(F)F)c3)o2)C(=O)Cc2ccc(OC)cc2)c2cc(OCCCO)ccc2N1C(=O)c1ccc2ccccc2n1 (stereo not given in full)", "label 0"),
    ("CCOC(=O)C1=C(C(=O)OCC)N(S(=O)(=O)CC[Si](C)(C)C)[C@H](c2ccccc2)CC1", "label 1"),
    ("C=CCC(OC(C)=O)[C@@H]1[C@@H](N(Cc2cccc3ccccc23)C(=O)c2cccc3ccccc23)c2cc(OCCCO)ccc2N1C(=O)Cc1ccc2ccccc2c1 (stereo not given in full)", "label 0"),
    ("CO[C@H]1O[C@H](CO)[C@@H](OC(=O)Nc2ccc3c(c2)OCO3)[C@@H]2OC(=O)[C@@H](Cc3ccccc3)C/C=C/C[C@H](Cc3ccccc3)C(=O)O[C@@H]12", "label 1"),
]

Check if z-score >= 0.5 (inclusive). Item: CC(c1ccccc1)C(O)C1C=CC2C(=O)N(c3ccccc3)C(=O)C2N1Nc1ccc(C#N)cc1 (stereo not given)
label 1

Next molecule: `CN(C)C(=O)[C@]1(Cc2ccccc2)N=C(c2ccc(OCCCO)cc2)O[C@@H]1c1ccccc1`
label 0

Would you mind doing `[N-]=[N+]=NCc1ccccc1C[C@]1(C(=O)N2CCCCC2)N=C(c2ccc(OCCCO)cc2)O[C@H]1c1ccccc1` as well?
label 1

How about CCC(CC)C(O)C1C=CC2C(=O)N(C)C(=O)C2N1N1CCCCC1 (stereo not given) ?
label 0

----------
assay: small-molecule binders of probe aLefty1, primary screen, biochemical, small-molecule microarray, 635/667 nm fluorescence (AID 1153); details: higher = more signal;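 note: score merges spot fluorescence with signal-to-noise ratio from the scanned slide images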
PROPERTY_LABEL: composite z-score
Write the number on its own, no unit after it.

Give its composite z-score value. Item: C=CCC(OC(C)=O)[C@@H]1[C@@H](N(Cc2cccc3ccccc23)C(=O)c2cccc3ccccc23)c2cc(OCCCO)ccc2N1C(=O)Cc1ccc2ccccc2c1 (some centres not stated)
0.211

Record: `CCOC(=O)C1=CC[C@@H](c2ccccc2)N(S(=O)(=O)C[Si](C)(C)C)[C@H]1c1ccccc1`
0.0437

Another molecule: CN1C(=O)C2C=CC(C(O)c3ccc(-c4ccccc4)s3)N(Nc3ccccc3)C2C1=O (configuration not stated)
0.612

Request: CCN(CC)c1ccc(N2CC=CC34O[C@@H]5C=CCOC(=O)[C@@H]5[C@H]3C(=O)N(CCCO)[C@@H]4C2=O)cc1 (some centres not stated)
0.027

Same question for `CC(C)CNC(=O)[C@@]1(C)c2ccccc2C(=O)N(Cc2cc(F)cc(C(F)(F)F)c2)[C@H]1c1ccc(CO)cc1` please.
0.163

Let us now turn to `COc1cccc(C[C@H]2C[C@@H](CO[Si](C(C)C)(C(C)C)C(C)C)N3C(=O)[C@@]4(C(C)=O)O[C@@]23[C@@H]2C(=O)N(C)C(=O)[C@@H]24)c1`
-0.0061

What would you report for CC(=O)c1ccc(C(O)C2C=CC3C(=O)NC(=O)C3N2Nc2ccc(Cl)cc2Cl)cc1 (configuration not stated) ?
0.0267

Data credit: PubChem BioAssay
